Target: human MetAP2 enzyme (Homo sapiens)
Assay: MetAP2 enzyme assay, MetAP2 enzyme complexed with manganese ions
Details: MetAP2 Mn pIC50, 10 μM MnCl2; -log(IC50), IC50 molar
metric-name: pIC50
Please report pIC50 as the negative decimal logarithm of the molar concentration, giving only the number.

Please report the measured pIC50 for Cc1nc(C(=O)NC[C@@H](C)O)ccc1-n1c2ccc(F)cc2c2[nH]ncc21 [Example 123]
8.20

Please report the measured pIC50 for Cc1nc(N2C[C@H]3C[C@H]3[C@H]2C(N)=O)ncc1-n1c2ccc(F)cc2c2[nH]ncc21 [Example 136]
8.30

Please report the measured pIC50 for Cc1nc(C(=O)NCCO)ccc1-n1c2ccc(F)cc2c2[nH]ncc21 [Example 96]
7.90

Please report the measured pIC50 for Cc1nc(NC[C@@H](C)O)ccc1-n1c2ccc(F)cc2c2[nH]ncc21 [Example 12]
8.30

* * *

Target: human MetAP2 enzyme (Homo sapiens, UniProt P50579)
Sequence (P50579 whole entry): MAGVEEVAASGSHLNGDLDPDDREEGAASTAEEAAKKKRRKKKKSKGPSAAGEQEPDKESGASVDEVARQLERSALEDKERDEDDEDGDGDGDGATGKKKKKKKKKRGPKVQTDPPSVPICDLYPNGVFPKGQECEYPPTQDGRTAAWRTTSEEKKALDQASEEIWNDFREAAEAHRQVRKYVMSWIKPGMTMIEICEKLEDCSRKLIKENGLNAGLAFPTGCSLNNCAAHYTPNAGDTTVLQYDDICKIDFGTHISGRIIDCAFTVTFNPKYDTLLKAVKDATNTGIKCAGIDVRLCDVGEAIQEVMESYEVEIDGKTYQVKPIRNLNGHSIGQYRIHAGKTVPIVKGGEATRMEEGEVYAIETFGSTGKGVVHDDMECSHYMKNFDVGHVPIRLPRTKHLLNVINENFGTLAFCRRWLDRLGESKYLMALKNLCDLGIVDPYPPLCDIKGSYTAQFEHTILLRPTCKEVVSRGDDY
Test: MetAP2 enzyme assay, MetAP2 enzyme complexed with cobalt ions
Details: MetAP2 Co pIC50, 10 μM CoCl2; -log(IC50), IC50 molar
For each record, write down the corresponding pIC50.
Please report pIC50 as the negative decimal logarithm of the molar concentration, giving only the number.

Please report the measured pIC50 for `Cc1cc(C(=O)N2CC(O)C2)ncc1-n1c2ccc(F)cc2c2[nH]ncc21`
8.00

Please report the measured pIC50 for `Cc1nc(NC[C@@H](C)O)ccc1-n1c2ccc(F)cc2c2[nH]ncc21`
7.90

Please report the measured pIC50 for `Cc1nc(C(=O)N2CC(O)C2)ccc1-n1c2ccc(F)cc2c2[nH]ncc21`
8.00

Please report the measured pIC50 for `Cc1c(-n2c3ccc(F)cc3c3[nH]ncc32)cnc(N)c1C`
8.00

Please report the measured pIC50 for `COCc1[nH]ncc1-n1c2ccc(F)cc2c2[nH]ncc21`
7.90

Please report the measured pIC50 for `Cc1nc(NC[C@@H](O)CO)ncc1-n1c2ccc(F)cc2c2[nH]ncc21`
8.10

Please report the measured pIC50 for `Cc1cc2cnn(C)c2cc1-n1c2ccc(F)cc2c2[nH]ncc21`
8.10

Please report the measured pIC50 for `Cc1nc(N)ncc1-n1c2ccc(F)cc2c2[nH]ncc21`
7.80

Please report the measured pIC50 for `Cn1nc(C(=O)NCCO)cc1-n1c2ccc(F)cc2c2[nH]ncc21`
7.60

Please report the measured pIC50 for `Cc1cc(C(=O)NCCCO)ncc1-n1c2ccc(F)cc2c2[nH]ncc21`
7.90

Please report the measured pIC50 for `Cc1nc(N2CCN(C)C(=O)C2)ncc1-n1c2ccc(F)cc2c2[nH]ncc21`
8.20

Please report the measured pIC50 for `Cc1nc2c(cc1-n1c3ccc(F)cc3c3[nH]ncc31)ncn2CCS(C)(=O)=O`
7.90

Please report the measured pIC50 for `Cc1nc(C(=O)N2CC(C#N)C2)ccc1-n1c2ccc(F)cc2c2[nH]ncc21`
7.90

* * *

Molecular target: UniProt:P50579
Experiment: MetAP2 enzyme assay, MetAP2 enzyme complexed with cobalt ions
Conditions: MetAP2 Co pIC50, 10 μM CoCl2; -log(IC50), IC50 molar
metric-name: log10(IC50) (log10 of the value in nM)
Lab note - IC50 converted to log10 from values in nM.

Please report the measured log10(IC50) for Cc1[nH]c(=O)ccc1-n1c2ccc(F)cc2c2[nH]ncc21 [Example 40]
1.20

Please report the measured log10(IC50) for Cc1cc(C(=O)N2CCOCC2)ncc1-n1c2ccc(F)cc2c2[nH]ncc21 [Example 106]
2.00

Please report the measured log10(IC50) for Cc1nc(N2C[C@@H](O)[C@H](O)C2)ncc1-n1c2ccc(F)cc2c2[nH]ncc21 [Example 76]
1.00

Please report the measured log10(IC50) for Nc1ncc(C(=O)O)cc1-n1c2ccc(F)cc2c2[nH]ncc21 [Example 18]
2.00

Please report the measured log10(IC50) for Cc1nc2c(cc1-n1c3ccc(F)cc3c3[nH]ncc31)ncn2CCCO [Example 80]
1.30

Please report the measured log10(IC50) for COCCNC(=O)c1ccc(-n2c3ccc(F)cc3c3[nH]ncc32)c(C)n1 [Example 102]
1.50

Please report the measured log10(IC50) for Cc1nc(N2CCC[C@H](O)C2)ncc1-n1c2ccc(F)cc2c2[nH]ncc21 [Example 37]
0.80

Please report the measured log10(IC50) for CNC(=O)c1ccc(-n2c3ccc(F)cc3c3[nH]ncc32)c(C)n1 [Example 119]
1.30

Please report the measured log10(IC50) for Cc1cc(C(=O)N2CC(N)C2)ncc1-n1c2ccc(F)cc2c2[nH]ncc21 [Example 114]
1.40

All values here come from patent US9475816B2.
